Test system: EPHA1
Settings: concentration: 1 μM, replicates: in singlicate; n = 1;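 further: KINOMEscan kinase panel screen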
The following molecules are listed with their measured %Inh values.

{"columns": ["entry_smiles", "measured_target", "%Inh, %"],
 "data": [
  ["COc1cc2nccc(Nc3cccc(Oc4ccccc4)c3)c2cc1OC.Cl", "EPHA1", 10],
  ["Nc1nc(-c2ccccc2F)c(-c2ccnc3ccccc23)s1", "EPHA1", 0],
  ["CN1C(=O)C(Nc2cc(Cl)c(O)c(Cl)c2)=C(c2ccc(Cl)cc2)C1=O", "EPHA1", 0],
  ["CCC(=O)c1c(-c2ccccc2)c2cc(Cl)ccc2c(=O)n1Cc1cc(S(C)(=O)=O)n(CC(F)F)n1", "EPHA1", 2],
  ["Cc1cccc(-c2nc(Nc3ccc4c(cnn4C)c3)c3ccccc3n2)n1", "EPHA1", 6],
  ["COc1cccc(-n2cnc3c(N)ncnc32)c1", "EPHA1", 9],
  ["FC(F)(F)c1ccc(-c2ncn(CCCN3CCOCC3)c2-c2ccncc2)cc1", "EPHA1", 6],
  ["CCc1nc(-c2cccc(C)c2)c(-c2ccncc2)s1", "EPHA1", 0],
  ["COc1ccc(-c2coc3ccc(-c4nnc(SCc5cccc(C#N)c5)o4)cc23)cc1", "EPHA1", 7],
  ["Cc1nnc(-c2ccc(C)c(-c3ccc(C(=O)O)cc3)c2)o1", "EPHA1", 0],
  ["COc1cc2ncn(-c3cc(OCc4ccncc4)c(C(N)=O)s3)c2cc1OC", "EPHA1", 21],
  ["CN(C)c1cc(-c2ccc3c(N)n[nH]c3c2)nc(N)n1", "EPHA1", 15],
  ["Cc1ccc(Oc2ccc(Nc3ncnc4cc[nH]c34)cc2C)cn1", "EPHA1", 13],
  ["OCCCNc1nccc(-c2c(-c3cccc(C(F)(F)F)c3)nn3cc(C(F)(F)F)ccc23)n1", "EPHA1", 5],
  ["COC(=O)c1c(-c2ccccc2)c2cc(Br)ccc2c(=O)n1Cc1ccc(S(C)(=O)=O)cc1", "EPHA1", 0],
  ["Cc1ccc(-c2ccc3c(ccc4sc5c(c43)NC[C@@H](C)N=C5N(C)C)n2)cn1", "EPHA1", 0],
  ["Nc1n[nH]c2nnc(-c3ccccc3)c(-c3ccccc3)c12", "EPHA1", 15],
  ["COc1cc2ncn(-c3cc(OCCCc4ccccc4)c(C(N)=O)s3)c2cc1OC", "EPHA1", 0],
  ["Cc1cc(Nc2nc(-c3cccc(C)n3)nc3ccccc23)ccn1", "EPHA1", 0]
]}

###

System: CSNK1G3
Settings: concentration: 1 μM, replicates: in singlicate; n = 1
Classify as follows. Reported %Inh greater than or equal to 3%: Met. Reported %Inh below: Not met.

{"columns": ["molecule", "discrete_label"],
 "data": [
  ["COc1ccc(-n2cnc3c(N)ncnc32)cc1", "Met"],
  ["C[C@@H]1CC[C@H](C(=O)NC2CCCCC2)CN1c1cc(-c2ccc3c(N)n[nH]c3c2)nc(N)n1", "Met"],
  ["COc1ccc(-c2cc3c(C)nc(N)nc3n([C@H]3CC[C@H](OCCO)CC3)c2=O)cn1", "Not met"],
  ["CCn1c(-c2ccoc2)nc2cnccc21", "Met"],
  ["Nc1nc(-c2ccccc2F)c(-c2ccnc3ccccc23)s1", "Met"],
  ["Cc1cccc(-c2nc(Nc3ccc4c(cnn4C)c3)c3ccccc3n2)n1", "Not met"],
  ["Nc1nc(N)c2nc(-c3ccccc3)[nH]c2n1", "Met"],
  ["COc1ccc(CNC(=O)NC2CCN(c3ccnc(Nc4ccc(F)cc4)n3)C2)cc1 (stereo not shown)", "Met"],
  ["COc1ccc(Nc2nccc(N3CCC(NS(=O)(=O)c4ccc(NC(C)=O)cc4)C3)n2)cc1 (stereo not shown)", "Met"],
  ["CN1C(=O)C(Nc2ccccc2)=C(c2ccccc2)C1=O", "Not met"],
  ["CCc1nc(-c2cccc(C)c2)c(-c2ccncc2)s1", "Met"],
  ["Cc1cc(Nc2nc(-c3cccc(C)n3)nc3ccccc23)ccn1", "Not met"],
  ["CCC(=O)c1c(-c2ccccc2)c2cc(Cl)ccc2c(=O)n1Cc1cc(S(C)(=O)=O)n(CC(F)F)n1", "Not met"],
  ["CCCNC(=O)Nc1ccc(Oc2ncnc3ccn(C)c23)cc1", "Not met"],
  ["CN1C(=O)C(Nc2cc(Cl)c(O)c(Cl)c2)=C(c2ccc(Cl)cc2)C1=O", "Met"],
  ["COc1ccc(-c2coc3ccc(-c4nnc(SCc5cccc(C#N)c5)o4)cc23)cc1", "Met"],
  ["CCc1ccc(-c2ccc3c(c2)-c2nn(C)cc2S(=O)(=O)N3C)cc1", "Not met"],
  ["CCn1c(-c2nonc2N)nc2ccccc21", "Not met"]
]}

###

Test system: MST1
Construct: gene STK4
Conditions: concentration: 1 μM, replicates: in singlicate; n = 1
Measured %Inh, listed per entry.
recorded_metric: %Inh (%)

{"columns": ["entry_smiles", "result_value"],
 "data": [
  ["O=C1NC(=O)C(c2ccccc2)=C1Nc1cccc(O)c1", 7],
  ["CCC(=O)c1c(-c2ccccc2)c2cc(Cl)ccc2c(=O)n1Cc1cc(S(C)(=O)=O)n(CCC(C)(C)O)n1", 21],
  ["Cc1cccc(-c2nc(Nc3ccc4c(cnn4C)c3)c3ccccc3n2)n1", 0],
  ["COc1cc(OC)cc(-c2cc3cnc(N)nc3nc2NC(=O)NC(C)(C)C)c1", 0],
  ["O=C(Nc1n[nH]c2cc(-c3ccccc3F)ccc12)C1CC1", 1],
  ["Cc1nc(N(C)[C@H]2CN(C(=O)CC#N)CC[C@H]2C)c2cc[nH]c2n1", 0],
  ["CN(C)c1cc(-c2ccc3c(N)n[nH]c3c2)nc(N)n1", 1],
  ["Cc1c(Cn2c(C)nn3c(=O)cc(N4CCO[C@H](C)C4)nc23)cccc1C(F)(F)F", 2],
  ["CCc1ccc(-c2ccc3c(c2)-c2nn(C)cc2S(=O)(=O)N3C)cc1", 0]
]}

###

Test system: TNNI3K
Settings: concentration: 1 μM, replicates: in singlicate; n = 1
recorded_metric: %Inh (%)

{"columns": ["entry_smiles", "recorded_metric", "result_value"],
 "data": [
  ["Cc1ccc(-c2ccc3c(ccc4sc5c(c43)NC[C@@H](C)N=C5N(C)C)n2)cn1", "%Inh", 0],
  ["CCc1ccc(-c2ccc3c(c2)-c2nn(C)cc2S(=O)(=O)N3C)cc1", "%Inh", 0],
  ["Nc1ncnc2c1ncn2-c1cccc(F)c1", "%Inh", 100],
  ["Cc1nnc(-c2ccc(C)c(-c3ccc(C(=O)O)cc3)c2)o1", "%Inh", 0],
  ["Nc1nc(-c2ccccc2F)c(-c2ccnc3ccccc23)s1", "%Inh", 94.1],
  ["Cc1ccccc1COc1cc(-n2cnc3cc(Cl)ccc32)sc1C(N)=O", "%Inh", 0],
  ["O=C(NCc1cccs1)c1cc(C(=O)c2c(Cl)cccc2Cl)c[nH]1", "%Inh", 0],
  ["Cc1c(Cn2c(C)nn3c(=O)cc(N4CCO[C@H](C)C4)nc23)cccc1C(F)(F)F", "%Inh", 4],
  ["C[C@@H]1CC[C@H](C(=O)NC2CCCCC2)CN1c1cc(-c2ccc3c(N)n[nH]c3c2)nc(N)n1", "%Inh", 5],
  ["O=C(Nc1n[nH]c2cc(-c3ccccc3F)ccc12)C1CC1", "%Inh", 0],
  ["Nc1nccc2scc(-c3ccc4c(c3)CCN4C(=O)Cc3ccccc3)c12", "%Inh", 0],
  ["Nc1nc(N)c2nc(-c3ccccc3)[nH]c2n1", "%Inh", 28],
  ["CCC(=O)c1c(-c2ccccc2)c2cc(Cl)ccc2c(=O)n1Cc1cc(C(=O)NC2CC2)n(C)n1", "%Inh", 0],
  ["COC(=O)c1c(-c2ccccc2)c2cc(C)ccc2c(=O)n1Cc1ccccc1", "%Inh", 0],
  ["CCC(=O)c1c(-c2ccccc2)c2cc(Cl)ccc2c(=O)n1Cc1cc(S(C)(=O)=O)n(CC(N)=O)n1", "%Inh", 0],
  ["COC(=O)c1c(-c2ccccc2)c2cc(Br)ccc2c(=O)n1Cc1ccc(NC(=O)CCC(=O)O)cc1", "%Inh", 0],
  ["COc1cccc(C2=C(N(C)c3ccccc3)C(=O)NC2=O)c1", "%Inh", 11],
  ["COc1cc(Nc2ccnc3ccc(C(F)(F)F)cc23)cc(OC)c1OC", "%Inh", 24],
  ["Nc1n[nH]c2ncc(-c3ccccc3)cc12", "%Inh", 12]
]}

###

Tested on: AXL
Conditions: concentration: 1 μM, replicates: in singlicate; n = 1

{"columns": ["entry_smiles", "%Inh, %"],
 "data": [
  ["COc1cc(OC)cc(-c2cc3cnc(N)nc3nc2NC(=O)NC(C)(C)C)c1", 0],
  ["Cl.c1ccc(Cn2cnc3cc(Nc4ncnc5ccccc45)ccc32)cc1", 0],
  ["COC(=O)c1c(-c2ccccc2)c2cc(Br)ccc2c(=O)n1Cc1ccc(S(C)(=O)=O)cc1", 7],
  ["Nc1n[nH]c2nnc(-c3ccccc3)c(-c3ccccc3)c12", 0],
  ["Cc1nn2c(=O)cc(N3CCOCC3)nc2n1Cc1cccc(Cl)c1Cl", 4]
]}
